experiment: Drug level in Sprague-Dawley rat CSF at 60 mg/kg after 1 hr; type: ADME, organism-based, Cerebrospinal fluid; parameters: dose 60 mg/kg; conditions: read-out: Drug uptake
READOUT KIND: concentration at 1 h (nM)
Please state the figure in nM; there is no need to write the unit.

What value of concentration at 1 h has been recorded for this entry: Cc1ccc(-n2nccn2)c(C(=O)N2C3CCC2CN(c2ncc4ccc(F)cc4n2)CC3)c1 (single isomer, unassigned; 8a) 170

* * *

experiment: Drug level in Sprague-Dawley rat CSF at 10 mg/kg after 2 hrs; type: ADME, organism-based, Cerebrospinal fluid; design: dose 10 mg/kg; conditions: read-out: Drug uptake
READOUT KIND: concentration at 2 h (nM)
The response must be a number in nM with no trailing unit.

Fill in the blank: the reported concentration at 2 h of Cc1ccc(-n2nccn2)c(C(=O)N2C3CCC2CN(c2ncc4ccc(F)cc4n2)CC3)c1 (single isomer, unassigned; 8a) is ____. 3
